Where these numbers come from: patent EP4806904A1

Test system: primary neural stem cells (NSCs)
Test: Differentiation of primary neural stem cells, βIII-tubulin fluorescence and Neurite Outgrowth Assay
Assay type: cell-based, SD rats
Conditions: 100 µg/mL, 4 days, significance vs blank control group
Where a SMILES comes first, the peptide text is derived from it. [ ]: non-standard residue; d: D form.
Experimental Readout: Number of neurite terminals

Use the examples below as a reference point.
CC(C)C[C@H](NC(=O)[C@H](C)N)C(=O)N1CCC[C@H]1C(=O)N[C@@H](C)C(=O)O [Compound 35, H-Ala-Leu-Pro-Ala-OH] (H-ALPA-OH) : * (*p < 0.05)
CC(C)C[C@H](NC(=O)[C@@H](NC(=O)CNC(=O)[C@@H]1CCCN1C(=O)[C@H](C)NC(=O)[C@H]1CCCN1C(=O)[C@H](CC(C)C)NC(=O)[C@H](C)N)[C@@H](C)O)C(=O)O [Compound 4, H-Ala-Leu-D-Pro-Ala-Pro-Gly-Thr-Leu-OH] (H-AL[dP]APGTL-OH) : ** (**p < 0.01)
CC(C)C[C@H](NC(=O)[C@@H](NC(=O)CNC(=O)[C@@H]1CCCN1)[C@@H](C)O)C(=O)O [Compound 28, H-Pro-Gly-Thr-Leu-OH] (H-PGTL-OH) : * (*p < 0.05)
CC(C)C[C@H](NC(=O)[C@@H](NC(=O)CNC(=O)[C@@H]1CCCN1C(=O)[C@H](C)NC(=O)[C@@H]1CCCN1C(=O)[C@H](CC(C)C)NC(=O)[C@@H](C)N)[C@@H](C)O)C(=O)O [Compound 2, H-D-Ala-Leu-Pro-Ala-Pro-Gly-Thr-Leu-OH] (H-[dA]LPAPGTL-OH) : ** (**p < 0.01)
CC(C)C[C@H](NC(=O)[C@@H](NC(=O)CNC(=O)[C@@H]1CCCN1C(=O)[C@H](C)NC(=O)[C@@H]1CCCN1C(=O)[C@@H](CC(C)C)NC(=O)[C@H](C)N)[C@@H](C)O)C(=O)O [Compound 3, H-Ala-D-Leu-Pro-Ala-Pro-Gly-Thr-Leu-OH] (H-A[dL]PAPGTL-OH) : * (*p < 0.05)
C[C@H](NC(=O)[C@@H]1CCCN1)C(=O)N1CCC[C@H]1C(=O)NCC(=O)O [Compound 36, H-Pro-Ala-Pro-Gly-OH] (H-PAPG-OH) : * (*p < 0.05)

Query Number of neurite terminals for CC(C)C[C@H](NC(=O)[C@@H](NC(=O)CNC(=O)[C@@H]1CCCN1C(=O)[C@@H](C)NC(=O)[C@@H]1CCCN1C(=O)[C@H](CC(C)C)NC(=O)[C@H](C)N)[C@@H](C)O)C(=O)O [Compound 5, H-Ala-Leu-Pro-D-Ala-Pro-Gly-Thr-Leu-OH] (H-ALP[dA]PGTL-OH)
* (*p < 0.05)

---

System: primary neural stem cells (NSCs)
Experiment: Differentiation of primary neural stem cells, βIII-tubulin fluorescence and Neurite Outgrowth Assay
Assay type: cell-based, SD rats
Conditions: 100 µg/mL, 4 days, significance vs blank control group
Where a SMILES comes first, the peptide text is derived from it. [ ]: non-standard residue; d: D form.
Experimental Readout: Neurite initiation points (branches)

Use the examples below as a reference point.
CC(C)C[C@H](NC(=O)[C@H](C)N)C(=O)N1CCC[C@H]1C(=O)N[C@@H](C)C(=O)O [Compound 35, H-Ala-Leu-Pro-Ala-OH] (H-ALPA-OH) : * (*p < 0.05)
CC(C)C[C@H](NC(=O)[C@@H](NC(=O)CNC(=O)[C@@H]1CCCN1C(=O)[C@H](C)NC(=O)[C@@H]1CCCN1C(=O)[C@H](CC(C)C)NC(=O)[C@@H](C)N)[C@@H](C)O)C(=O)O [Compound 2, H-D-Ala-Leu-Pro-Ala-Pro-Gly-Thr-Leu-OH] (H-[dA]LPAPGTL-OH) : * (*p < 0.05)
CC(C)C[C@H](NC(=O)[C@@H](NC(=O)CNC(=O)[C@@H]1CCCN1C(=O)[C@H](C)NC(=O)[C@@H]1CCCN1C(=O)[C@@H](CC(C)C)NC(=O)[C@H](C)N)[C@@H](C)O)C(=O)O [Compound 3, H-Ala-D-Leu-Pro-Ala-Pro-Gly-Thr-Leu-OH] (H-A[dL]PAPGTL-OH) : * (*p < 0.05)
CC(C)C[C@H](NC(=O)[C@@H](NC(=O)CNC(=O)[C@H]1CCCN1C(=O)[C@H](C)NC(=O)[C@@H]1CCCN1C(=O)[C@H](CC(C)C)NC(=O)[C@H](C)N)[C@@H](C)O)C(=O)O [Compound 6, H-Ala-Leu-Pro-Ala-D-Pro-Gly-Thr-Leu-OH] (H-ALPA[dP]GTL-OH) : * (*p < 0.05)

Then there is this compound:
Query Neurite initiation points (branches) for CC(=O)N[C@@H](C)C(=O)N[C@@H](CC(C)C)C(=O)N1CCC[C@H]1C(=O)N[C@@H](C)C(=O)N1CCC[C@@H]1C(=O)NCC(=O)N[C@H](C(=O)N[C@@H](CC(C)C)C(N)=O)[C@@H](C)O [Compound 41, Ac-Ala-Leu-Pro-Ala-D-Pro-Gly-Thr-Leu-NH2] (Ac-ALPA[dP]GTL-NH2)
* (*p < 0.05)
